molecular target: gamma secretase (Homo sapiens, UniProt P49768); construct: HEK293 cells stably expressing full length Amyloid Precursor Protein (APP); endogenous in cells; experiment: GSM cell-based assay: Aβ 42 inhibition or reduction in HEK 293 cells over-expressing APP (sandwich ELISA); conditions: approximate IC50; HEK293 cells stably expressing full length APP, 24 hours incubation, 10-point dose response starting at 10 μM
Rule for this label: 1 means IC50 is less than 1000 nM; 0 means IC50 is at least 1000 nM.

See these solved cases before continuing.
Cc1cc(-c2ccc(NC(=O)C(C)c3cccc(-c4csc(N5CCOCC5)n4)c3)cc2)ccn1 (stereo not drawn) : 1
COc1ccc2cc([C@@H](C)C(=O)Nc3ccc(-c4ccnc(C)c4)cc3)ccc2c1 : 1
Cc1cccc(C(C(=O)Nc2ccc(-c3ccnc(C)c3)cc2)C(C)C)c1 (stereo not drawn) : 0
Cc1cc(-c2ccc(NC(=O)c3cn4c(C)cccc4n3)cc2)ccn1 : 0

Field: below-cutoff. Rule: recorded IC50 strictly less than 1000 nM. Subject: Cc1cc(-c2ccc(NC(=O)[C@H](CC(C)C)c3ccc(-c4ccc(N5CCOCC5)cc4)cc3)cc2)ccn1 1

Could you please tell me whether IC50 recorded for Cc1cc(-c2ccc(NC(=O)c3cccc(N(C)C)c3)cc2)ccn1 is less than 1000 nM? 0

# strict comparison: is reported IC50 < 1000 nM? input = Cc1cc(-c2ccc(NC(=O)c3cccc(-c4ccccc4)c3)cc2)ccn1 1

Below 1000 nM on IC50? Entry Cc1cc(-c2ccc(NC(=O)Cc3ccc4oc(-c5ccccc5)nc4c3)cc2)ccn1 1

Identify whether the compound COc1cc(NC(=O)C(C)c2cccc(Br)c2)ccc1-c1ccnc(C)c1 (stereo not drawn) records IC50 below 1000 nM. 1

Threshold test, IC50 < 1000 nM: Cc1cc(-c2ccc(NC(=O)C(C)c3ccc(N)cc3)cc2)ccn1 (stereo not drawn) 0

Answer whether the compound COc1cccc(C(=O)Nc2ccc(-c3ccnc(C)c3)cc2)c1 has IC50 strictly less than 1000 nM 0

State whether 1000 nM exceeds IC50 recorded for Cc1cc(-c2ccc(NC(=O)C(C)c3cccc(N4CCOCC4)n3)cc2)ccn1 (stereo not drawn) . 0

Given COc1ncc(-c2cccc([C@@H](C)C(=O)Nc3ccc(-c4ccnc(C)c4)cc3)c2)cn1 , is recorded IC50 strictly lower than 1000 nM? 0

Take the compound Cc1cc(-c2ccc(NC(=O)C3(c4ccccc4F)CC3)cc2)ccn1 and say whether its IC50 is less than 1000 nM. 0

----------
IC50 by entry:
Molecular target: gamma secretase (Homo sapiens)
Construct: HEK293 cells stably expressing full length Amyloid Precursor Protein (APP); endogenous in cells
Assay: GSM cell-based assay: Aβ 42 inhibition or reduction in HEK 293 cells over-expressing APP (sandwich ELISA)
Settings: approximate IC50; HEK293 cells stably expressing full length APP, 24 hours incubation, 10-point dose response starting at 10 μM
Excerpt: GSM cell-based assays were designed to measure the modulation of Aβ 42 from HEK 293 cells over-expressing APP. Three simultaneous cell-based assays, namely Aβ 42 inhibition or reduction, Aβ 40 inhibition or reduction and a measurement of cell viability of the cells from which the Aβ 42/40 readout was obtained, together gave an interpretation of gamma secretase modulation (GSM). The assays measure Aβ 42 and Ab 40 from conditioned medium of test compound treated HEK 293 cells. […]
Return type: number; implicit unit nM.

The following compounds have reported results that may help.
Cc1cc(-c2ccc(NC(=O)C(C)c3ccc(NC4CCOCC4)cc3)cc2)ccn1 (centres unmarked) : 2590
Cc1cc(-c2ccc(NC(=O)Cc3ccc(-c4ccccc4)cc3)cc2)ccn1 : 557
CC[C@H](C(=O)Nc1ccc(-c2ccnc(C)c2)cc1)c1ccccc1 : 1870

Jot down IC50 (gamma secretase (Homo sapiens)) of Cc1cc(-c2ccc(NC(=O)[C@H](C)c3cc(C(F)(F)F)cc(C(F)(F)F)c3)cc2)ccn1 . 256

Enter measured IC50, system gamma secretase (Homo sapiens), for the compound shown: CC(=O)N1CCN(c2ccc(-c3cccc([C@@H](C)C(=O)Nc4ccc(-c5ccnc(C)c5)cc4)c3)cc2)CC1 320

Look up and report IC50, with gamma secretase (Homo sapiens) as system, for COc1cc(C(C)C(=O)Nc2ccc(-c3ccnc(C)c3)cc2)ccc1NC(C)C (centres unmarked) 1520

----------
target: gamma secretase (Homo sapiens); construct: HEK293 cells stably expressing full length Amyloid Precursor Protein (APP); endogenous in cells; experiment: GSM cell-based assay: Aβ 42 inhibition or reduction in HEK 293 cells over-expressing APP (sandwich ELISA); details: approximate IC50; HEK293 cells stably expressing full length APP, 24 hours incubation, 10-point dose response starting at 10 μM
IC50 values, listed per item
Give a bare numeral; the unit nM is implied.

Cc1cc(-c2ccc(NC(=O)Cc3ccc(F)c(C(F)(F)F)c3)cc2)ccn1 : 2390
CCN(Cc1cc(OC)c(OC)c(OC)c1)c1ccc(C(C)C(=O)Nc2ccc(-c3ccnc(C)c3)cc2)cc1 (stereo not drawn) : 310
Cc1cc(-c2ccc(NC(=O)[C@H](CC3CC3)c3cccc(Br)c3)cc2)ccn1 : 367
Cc1cc(-c2ccc(NC(=O)C(C)c3cccc(-c4ccsc4)c3)cc2)ccn1 (stereo not drawn) : 1270
Cc1cc(-c2ccc(NC(=O)Cc3ccc(C)s3)cc2)ccn1 : 2370

Quickly give me recorded IC50 for COC1CCCC(C(=O)Nc2ccc(-c3ccnc(C)c3)cc2)C1 (stereo not drawn) 4280

Query IC50 for Cc1cc(-c2ccc(NC(=O)C(CC(C)C)c3ccc(N4CCCCC4)cc3)cc2)ccn1 (stereo not drawn) 242

Give a short answer stating reported IC50 for Cc1cc(-c2ccc(NC(=O)C3CCCc4ccccc43)cc2)ccn1 (stereo not drawn) . 2690

Answer with the recorded IC50 for the compound listed here: Cc1cc(-c2ccc(NC(=O)C(C)n3cnc(-c4ccccc4)c3)cc2)ccn1 (stereo not drawn) 582

----------
Target: gamma secretase (Homo sapiens)
Construct: HEK293 cells stably expressing full length Amyloid Precursor Protein (APP); endogenous in cells
Assay: GSM cell-based assay: Aβ 42 inhibition or reduction in HEK 293 cells over-expressing APP (sandwich ELISA)
Conditions: approximate IC50; HEK293 cells stably expressing full length APP, 24 hours incubation, 10-point dose response starting at 10 μM
Excerpt: GSM cell-based assays were designed to measure the modulation of Aβ 42 from HEK 293 cells over-expressing APP. Three simultaneous cell-based assays, namely Aβ 42 inhibition or reduction, Aβ 40 inhibition or reduction and a measurement of cell viability of the cells from which the Aβ 42/40 readout was obtained, together gave an interpretation of gamma secretase modulation (GSM). The assays measure Aβ 42 and Ab 40 from conditioned medium of test compound treated HEK 293 cells. […]
pIC50: −log10 of the molar value.
readout.label: pIC50

Below, each entry is followed by its recorded pIC50 result.
Cc1cc(-c2ccc(NC(=O)CC3CCCC3)cc2)ccn1 [Cpd 558] : < 5.00
Cc1cc(-c2ccc(NC(=O)c3cc(Cl)cc(Cl)c3)c(F)c2)ccn1 [Cpd 86] : < 5.00

Tell me pIC50 reported for Cc1cc(-c2ccc(NC(=O)c3cccc(C#N)c3)cc2)ccn1 [Cpd 275] < 5.00

----------
target: gamma secretase (Homo sapiens); construct: HEK293 cells stably expressing full length Amyloid Precursor Protein (APP); endogenous in cells; test: GSM cell-based assay: Aβ 42 inhibition or reduction in HEK 293 cells over-expressing APP (sandwich ELISA); settings: approximate IC50; HEK293 cells stably expressing full length APP, 24 hours incubation, 10-point dose response starting at 10 μM
Threshold 900 nM: IC50 strictly smaller gives condition met, otherwise condition not met.

Worked cases, answers included:
COc1cc(NC(=O)C(C)c2cc(F)cc(C(F)(F)F)c2)ccc1-c1ccnc(C)c1 (centres unmarked) : condition met
Cc1cc(-c2ccc(NC(=O)C(C)n3ccc4ccccc43)cc2)ccn1 (centres unmarked) : condition not met

Next, consider the following compound.
Here's an entry: Cc1cc(-c2ccc(NC(=O)C(C)c3cccc(Nc4ccccc4)c3)cc2)ccn1 (centres unmarked) . Is its IC50 below 900 nM? condition not met

----------
target: gamma secretase (Homo sapiens); construct: HEK293 cells stably expressing full length Amyloid Precursor Protein (APP); endogenous in cells; test: GSM cell-based assay: Aβ 42 inhibition or reduction in HEK 293 cells over-expressing APP (sandwich ELISA); conditions: approximate IC50; HEK293 cells stably expressing full length APP, 24 hours incubation, 10-point dose response starting at 10 μM
pIC50: −log10 of the molar value.
readout.label: pIC50

Below, each entry is followed by its recorded pIC50 result.
Cc1cc(-c2ccc(NC(=O)Cc3cccc(C#N)c3)cc2)ccn1 [Cpd 321] : < 5.00
COc1cc(C(=O)Nc2ccc(-c3ccnc(C)c3)cc2)ccc1C [Cpd 282] : < 5.00
Cc1cc(-c2ccc(NC(=O)C(C)(C)c3ccc(Cl)cc3)cc2)ccn1 [Cpd 48] : < 5.00

Identify pIC50 associated with the compound Cc1cc(-c2ccc(NC(=O)C3CC(=O)N(C4CCCCC4)C3)cc2)ccn1 (centres unmarked) [Cpd 60] < 5.00

Provide pIC50 value for the following compound: Cc1cc(-c2ccc(NC(=O)[C@H]3CCCN3C(=O)OC(C)(C)C)cc2)ccn1 [Cpd 168] < 5.00
